- System: trypsin
- procedure-text: in vitro
- condition-info: isolated enzyme trypsin

given-smiles: CCCCCCCCCCCCCC(=O)N[C@@H](CC(N)=O)C(=O)N[C@@H](CC(C)C)C(=O)N[C@]1(C)CCCCCCC=CCCC[C@@](C)(C(=O)N[C@@H](CCC(=O)O)C(=O)N[C@@H](CC(C)C)C(=O)N[C@@H](CC(N)=O)C(N)=O)NC(=O)[C@H](CC(C)C)NC(=O)[C@H](CC(C)C)NC(=O)[C@H](CCCNC(=N)N)NC(=O)[C@H](CC(=O)O)NC(=O)[C@H](CC(C)C)NC(=O)[C@H](CCC(=O)O)NC1=O
remaining at 0.5 h, 100 µM / %: 108
